Cited source for all entries: PubChem BioAssay (NCATS)

# System: Tov112D
# assay_notes: Primary qHTS to identify gynecologic anti-cancer compounds using libraries of approved drugs and bioactive compounds (AID 1345084); also: nearly all actives have a fitted effect of over 55% in size
# condition_label: Gynecologic cancer cell panel viability, ATPlite luminescence, 48 h; series mostly up to 57.5 µM
Results filed as inconclusive are left out. Active and inactive are the calls of the source. Calls follow the shape of the dose curve; as a rule, active = well fitted cell-killing curve with a large enough effect; inconclusive = small, poorly fitted or top-dose-only effect, or effect the other way; inactive = flat fitted curve, though single readings scatter.
parameter_measured: outcome

{"compound": "CCN(CC)CC(=O)Oc1ccc(NC(C)=O)cc1", "outcome": "inactive"}
{"compound": "COC(=O)c1c(Cl)c(Cl)c(C(=O)OC)c(Cl)c1Cl", "outcome": "inactive"}
{"compound": "CN1C(CSCC(F)(F)F)Nc2cc(Cl)c(S(N)(=O)=O)cc2S1(=O)=O (stereo unspecified)", "outcome": "inactive"}
{"compound": "N=C(N)c1ccc(OCCCOc2ccc(C(=N)N)cc2)cc1", "outcome": "inactive"}
{"compound": "Nc1nnnn1-c1ccccc1", "outcome": "inactive"}

Kindly review the next compound as well.
Input line: State the recorded outcome for this entry: "CCCCCCn1c(=O)c2c(ncn2C)n(C)c1=O"
Output line: inactive
